Reported values of log10(IC50) for individual entries
Biological target: mTOR (Homo sapiens, UniProt P42345)
Construct: phosphorylation of the Akt protein at Ser473 (AKT lies downstream of PI3Kα in the signal transduction pathway) in the MDA-MB-468 cells; endogenous in cells; host or cells: MDA-MB-468 cells (ATCC HTB 132)
Experiment: Assay d): mTOR cellular potency (phospho-AKT Ser473 in MDA-MB-468 cells)
Assay type: cell-based
Details: MDA-MB-468 cells, phospho-AKT Ser473, 2 h; Table 3 comparative data; read-out: Assay d) mTOR Cell IC50
QUANTITY NAME: log10(IC50) (log10 of the value in nM)

# MOLECULE, TEST RESULT
data = [
    ("COc1ncc(-c2ccc3ncc4c(c3c2)n(C2CC2)c(=O)n4C)cc1NS(=O)(=O)C1CC1 [CN102399218A Compound 114, reference compound]", 1.67),
    ("Cn1c(=O)n(C2CCOCC2)c2c3cc(-c4cnc(N)nc4)ccc3ncc21 [CN102399218A Compound 94, reference compound]", 1.62),
    ("COc1ccc(-c2ccc3ncc4c(c3c2)n(C2CCNCC2)c(=O)n4C)cn1 [CN102372711A Compound 1, reference compound]", 2.37),
    ("Cn1c(=O)n(C2CNC2)c2c3cc(-c4cnc5[nH]ccc5c4)ccc3ncc21 [CN102399218A Compound 61, reference compound]", 2.25),
    ("Cn1c(=O)n(C2CC2)c2c3cc(-c4cnc5[nH]ccc5c4)ccc3ncc21 [CN102399218A Compound 62, reference compound]", 1.19),
    ("COC(=O)N1CCC(n2c(=O)n(C)c3cnc4ccc(-c5ccc(OC)nc5)cc4c32)CC1 [CN102372711A Compound 4, reference compound]", 1.86),
]

---

Target: mTOR (Homo sapiens, UniProt P42345)
Construct: phosphorylation of the Akt protein at Ser473 (AKT lies downstream of PI3Kα in the signal transduction pathway) in the MDA-MB-468 cells; endogenous in cells; host or cells: MDA-MB-468 cells (ATCC HTB 132)
Assay: Assay d): mTOR cellular potency (phospho-AKT Ser473 in MDA-MB-468 cells)
Format: cell-based
Conditions: MDA-MB-468 cells, phospho-AKT Ser473, 2 h; Table 2; read-out: Assay d) mTOR Cell IC50
Reported values of IC50 for individual entries

# MOLECULE, ENDPOINT UNIT, RELATION QUALIFIER, IC50
rows = [
    ("CO[C@@H]1CCC[C@H](n2c(=O)n(C)c3cnc4ccc(-c5ccc(OCCCN(C)C)cc5)cc4c32)C1 (relative stereo) [Example 33]", "nM", "=", 1230),
    ("CN(C)CCOc1ccc(-c2ccc3ncc4c(c3c2)n(C2CCOCC2)c(=O)n4C)cc1 [Example 54]", "nM", "=", 7730),
    ("CO[C@H]1C[C@H](n2c(=O)n(C)c3cnc4ccc(-c5ccc(OCCCN6CCCC6)cc5)cc4c32)C1 [Example 42]", "nM", "=", 2170),
    ("CO[C@H]1CC[C@@H](n2c(=O)n(C)c3cnc4ccc(-c5ccc(OCCCN(C)C)cc5)cc4c32)CC1 [Example 25]", "nM", "=", 879),
    ("Cn1c(=O)n([C@@H]2CCCOC2)c2c3cc(-c4ccc(OCCN5CCCC5)cc4)ccc3ncc21 [Example 50]", "nM", "≥", 30000),
    ("CO[C@H]1C[C@@H](n2c(=O)n(C)c3cnc4ccc(-c5ccc(OCCCN6CCCCC6)cc5)cc4c32)C1 [Example 43]", "nM", "=", 3630),
    ("CO[C@@H]1CC[C@@H](n2c(=O)n(C)c3cnc4cc(F)c(-c5ccc(OCCCN6CCC6)cc5)cc4c32)C1 (single isomer, unassigned) [Example 24]", "nM", "=", 5910),
    ("CO[C@H]1C[C@@H](n2c(=O)n(C)c3cnc4ccc(-c5ccc(OCCCN(C)C)cc5)cc4c32)C1 [Example 11]", "nM", "=", 6360),
    ("Cn1c(=O)n(C2CCOCC2)c2c3cc(-c4ccc(OCCCN5CCCCC5)cc4)ccc3ncc21 [Example 18]", "nM", "=", 2650),
    ("CO[C@H]1CC[C@H](n2c(=O)n(C)c3cnc4ccc(-c5ccc(OCCCN6CCCC6)cc5)cc4c32)C1 (single isomer, unassigned) [Example 19]", "nM", "=", 634),
    ("CC(C)n1c(=O)n(C)c2cnc3cc(F)c(-c4ccc(OCCCN5CCC5)cc4)cc3c21 [Example 4]", "nM", "=", 9120),
    ("CN(C)CCCOc1ccc(-c2cc3c(cc2F)ncc2c3n(C3CCOCC3)c(=O)n2C)cc1 [Example 45]", "nM", "=", 8650),
    ("Cn1c(=O)n([C@H]2CCCOC2)c2c3cc(-c4ccc(OCCN5CCCC5)cc4)ccc3ncc21 [Example 51]", "nM", "=", 1760),
    ("CN(C)CCCOc1ccc(-c2ccc3ncc4c(c3c2)n([C@@H]2CCCOC2)c(=O)n4C)cc1 [Example 8]", "nM", "=", 1420),
]

---

Target: ATR kinase (Homo sapiens, UniProt Q13535)
Construct: endogenous in cells; host or cells: HT29 cells (ECACC #85061109)
Sequence (Q13535 whole entry): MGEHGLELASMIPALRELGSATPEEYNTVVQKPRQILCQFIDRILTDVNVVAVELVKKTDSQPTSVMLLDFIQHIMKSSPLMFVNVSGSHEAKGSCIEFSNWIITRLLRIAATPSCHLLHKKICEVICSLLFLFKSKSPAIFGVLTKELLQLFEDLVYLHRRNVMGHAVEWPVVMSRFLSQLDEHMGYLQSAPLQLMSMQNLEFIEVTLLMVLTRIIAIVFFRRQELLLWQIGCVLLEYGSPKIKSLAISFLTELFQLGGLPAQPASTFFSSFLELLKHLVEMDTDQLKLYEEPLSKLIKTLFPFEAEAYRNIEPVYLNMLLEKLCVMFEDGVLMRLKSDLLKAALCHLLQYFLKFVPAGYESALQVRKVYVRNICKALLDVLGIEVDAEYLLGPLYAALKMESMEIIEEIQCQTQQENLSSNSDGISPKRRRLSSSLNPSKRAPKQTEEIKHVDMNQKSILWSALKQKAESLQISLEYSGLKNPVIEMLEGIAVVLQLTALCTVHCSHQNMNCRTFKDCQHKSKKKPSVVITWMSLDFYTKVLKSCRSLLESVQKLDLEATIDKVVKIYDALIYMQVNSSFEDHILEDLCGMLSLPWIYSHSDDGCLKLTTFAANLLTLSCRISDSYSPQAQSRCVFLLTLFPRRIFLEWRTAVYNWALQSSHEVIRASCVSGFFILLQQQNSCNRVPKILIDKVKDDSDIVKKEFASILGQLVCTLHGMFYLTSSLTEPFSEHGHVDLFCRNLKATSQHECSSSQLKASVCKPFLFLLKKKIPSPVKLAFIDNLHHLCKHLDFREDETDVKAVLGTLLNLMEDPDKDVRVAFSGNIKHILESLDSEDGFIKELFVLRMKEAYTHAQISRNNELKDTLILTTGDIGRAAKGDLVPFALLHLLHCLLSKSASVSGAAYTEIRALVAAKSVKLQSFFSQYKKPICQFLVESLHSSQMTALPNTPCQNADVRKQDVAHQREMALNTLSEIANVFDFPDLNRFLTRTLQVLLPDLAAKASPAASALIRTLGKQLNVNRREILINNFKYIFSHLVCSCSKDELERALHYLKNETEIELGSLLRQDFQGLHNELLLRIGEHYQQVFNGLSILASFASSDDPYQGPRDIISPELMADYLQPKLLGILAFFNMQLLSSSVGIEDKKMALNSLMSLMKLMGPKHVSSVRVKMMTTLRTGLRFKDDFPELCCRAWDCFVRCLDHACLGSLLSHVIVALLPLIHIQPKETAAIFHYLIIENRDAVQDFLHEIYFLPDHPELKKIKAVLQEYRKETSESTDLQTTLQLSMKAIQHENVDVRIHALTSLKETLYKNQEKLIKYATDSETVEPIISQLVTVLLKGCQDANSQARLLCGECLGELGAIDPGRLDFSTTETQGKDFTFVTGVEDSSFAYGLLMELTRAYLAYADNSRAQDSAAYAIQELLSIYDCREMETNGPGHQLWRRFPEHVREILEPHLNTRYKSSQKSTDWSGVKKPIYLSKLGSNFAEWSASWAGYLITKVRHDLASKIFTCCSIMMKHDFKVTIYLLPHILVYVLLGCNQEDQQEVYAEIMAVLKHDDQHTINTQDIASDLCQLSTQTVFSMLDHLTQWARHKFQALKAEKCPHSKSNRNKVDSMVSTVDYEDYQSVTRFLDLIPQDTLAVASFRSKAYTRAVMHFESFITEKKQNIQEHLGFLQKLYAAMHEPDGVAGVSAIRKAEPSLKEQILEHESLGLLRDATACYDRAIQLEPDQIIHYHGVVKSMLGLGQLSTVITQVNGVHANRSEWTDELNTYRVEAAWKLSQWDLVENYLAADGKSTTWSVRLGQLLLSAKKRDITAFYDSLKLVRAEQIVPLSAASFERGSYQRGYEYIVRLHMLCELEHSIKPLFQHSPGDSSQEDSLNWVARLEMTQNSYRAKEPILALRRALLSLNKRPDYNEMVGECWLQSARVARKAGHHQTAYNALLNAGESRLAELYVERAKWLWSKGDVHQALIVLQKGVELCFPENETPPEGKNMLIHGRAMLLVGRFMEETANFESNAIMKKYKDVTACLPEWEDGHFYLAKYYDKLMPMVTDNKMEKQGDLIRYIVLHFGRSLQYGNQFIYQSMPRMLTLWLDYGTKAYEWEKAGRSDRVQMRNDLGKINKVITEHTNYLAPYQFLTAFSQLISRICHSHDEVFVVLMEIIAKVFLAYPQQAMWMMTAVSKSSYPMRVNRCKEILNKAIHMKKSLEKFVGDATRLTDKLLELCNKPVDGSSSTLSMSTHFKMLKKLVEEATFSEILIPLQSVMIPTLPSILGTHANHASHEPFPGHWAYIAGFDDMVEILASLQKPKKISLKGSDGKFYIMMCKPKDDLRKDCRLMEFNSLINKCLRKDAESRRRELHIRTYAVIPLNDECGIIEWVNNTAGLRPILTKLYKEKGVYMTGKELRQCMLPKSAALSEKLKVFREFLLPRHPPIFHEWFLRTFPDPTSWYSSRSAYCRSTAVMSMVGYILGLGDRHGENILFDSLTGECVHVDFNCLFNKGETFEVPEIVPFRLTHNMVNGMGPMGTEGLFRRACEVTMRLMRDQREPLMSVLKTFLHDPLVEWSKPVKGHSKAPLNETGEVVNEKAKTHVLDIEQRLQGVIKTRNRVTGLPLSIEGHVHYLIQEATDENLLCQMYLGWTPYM
Sequence (Q8WXE1 whole entry partner): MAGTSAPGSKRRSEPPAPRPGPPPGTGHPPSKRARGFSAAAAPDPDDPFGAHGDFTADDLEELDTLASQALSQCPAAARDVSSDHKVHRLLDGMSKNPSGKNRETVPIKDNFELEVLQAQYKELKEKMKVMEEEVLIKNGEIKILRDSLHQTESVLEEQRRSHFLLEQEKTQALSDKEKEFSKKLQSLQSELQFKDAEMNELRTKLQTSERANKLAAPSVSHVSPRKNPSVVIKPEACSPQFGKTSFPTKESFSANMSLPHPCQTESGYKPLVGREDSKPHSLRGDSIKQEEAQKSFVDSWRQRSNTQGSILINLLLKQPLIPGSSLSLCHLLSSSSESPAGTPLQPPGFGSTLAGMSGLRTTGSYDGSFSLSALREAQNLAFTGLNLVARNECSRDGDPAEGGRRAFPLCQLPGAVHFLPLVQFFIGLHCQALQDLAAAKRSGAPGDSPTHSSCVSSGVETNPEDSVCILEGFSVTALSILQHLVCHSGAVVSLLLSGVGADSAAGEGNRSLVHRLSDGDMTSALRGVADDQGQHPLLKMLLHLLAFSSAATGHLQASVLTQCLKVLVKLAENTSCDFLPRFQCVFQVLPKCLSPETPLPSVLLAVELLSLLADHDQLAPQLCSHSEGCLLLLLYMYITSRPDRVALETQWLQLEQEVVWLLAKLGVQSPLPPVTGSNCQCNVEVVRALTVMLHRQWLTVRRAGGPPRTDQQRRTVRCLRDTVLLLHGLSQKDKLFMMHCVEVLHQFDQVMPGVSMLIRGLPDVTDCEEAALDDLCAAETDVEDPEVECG
Experiment: Assay b): ATR cellular potency (pChk1 Ser345 in HT29 cells after 4NQO)
Assay type: cell-based
Conditions: HT29 cells, 4NQO, pChk1 Ser345; Table 3 comparative data; read-out: Assay b) ATR Cell IC50
pIC50: −log10 of the molar value.
Reported values of pIC50 for individual entries
QUANTITY NAME: pIC50

# MOLECULE, ASSAY SYSTEM, TEST RESULT
records = [
    ("Cn1c(=O)n(C2CC2)c2c3cc(-c4cnc5[nH]ccc5c4)ccc3ncc21 [CN102399218A Compound 62, reference compound]", "ATR kinase (Homo sapiens, UniProt Q13535)", 7.25),
    ("COc1ncc(-c2ccc3ncc4c(c3c2)n(C2CC2)c(=O)n4C)cc1NS(=O)(=O)C1CC1 [CN102399218A Compound 114, reference compound]", "ATR kinase (Homo sapiens, UniProt Q13535)", 7.16),
    ("Cn1c(=O)n(C2CNC2)c2c3cc(-c4cnc5[nH]ccc5c4)ccc3ncc21 [CN102399218A Compound 61, reference compound]", "ATR kinase (Homo sapiens, UniProt Q13535)", 5.83),
]

---

Target: ATM kinase (Homo sapiens, UniProt Q13315)
Construct: endogenous in cells; host or cells: HT29 cells (ECACC #85061109)
Experiment: Assay a): ATM cellular potency (pATM Ser1981 in irradiated HT29 cells)
Assay type: cell-based
Conditions: HT29 cells, X-ray irradiation, pATM Ser1981; Table 2; read-out: Assay a) ATM Cell IC50
pIC50: −log10 of the molar value.
Reported values of pIC50 for individual entries

# MOLECULE, pIC50
rows = [
    ("CO[C@H]1CC[C@H](n2c(=O)n(C)c3cnc4ccc(-c5ccc(OCCN(C)C)cc5)cc4c32)C1 [Example 52]", 8.45),
    ("Cn1c(=O)n([C@H]2CCCOC2)c2c3cc(-c4ccc(OCCN5CCCC5)cc4)ccc3ncc21 [Example 51]", 7.99),
    ("CC(C)n1c(=O)n(C)c2cnc3ccc(-c4ccc(OCCCN5CCC5)cc4)cc3c21 [Example 3]", 9.76),
    ("CO[C@H]1CCC[C@H](n2c(=O)n(C)c3cnc4ccc(-c5ccc(OCCCN6CCCC6)cc5)cc4c32)C1 (single isomer, unassigned) [Example 31]", 9.15),
    ("CO[C@@H]1CCC[C@H](n2c(=O)n(C)c3cnc4ccc(-c5ccc(OCCCN(C)C)cc5)cc4c32)C1 (relative stereo) [Example 33]", 8.64),
    ("CN(C)CCOc1ccc(-c2cc3c(cc2F)ncc2c3n(C3CCOCC3)c(=O)n2C)cc1 [Example 56]", 7.27),
    ("CC(C)n1c(=O)n(C)c2cnc3cc(F)c(-c4ccc(OCCCN5CCC5)cc4)cc3c21 [Example 4]", 8.18),
    ("CO[C@@H]1CC[C@@H](n2c(=O)n(C)c3cnc4cc(F)c(-c5ccc(OCCCN(C)C)cc5)cc4c32)C1 (single isomer, unassigned) [Example 14]", 8.86),
    ("Cn1c(=O)n([C@@H]2CCCOC2)c2c3cc(-c4ccc(OCCCN5CCCC5)cc4)ccc3ncc21 [Example 16]", 9.10),
    ("CO[C@H]1CCC[C@H](n2c(=O)n(C)c3cnc4ccc(-c5ccc(OCCCN6CCCC6)cc5)cc4c32)C1 (single isomer, unassigned) [Example 30]", 8.79),
    ("CO[C@@H]1CC[C@@H](n2c(=O)n(C)c3cnc4ccc(-c5ccc(OCCCN6CCCC6)cc5)cc4c32)C1 (single isomer, unassigned) [Example 20]", 9.34),
    ("CN(C)CCCOc1ccc(-c2cc3c(cc2F)ncc2c3n(C3CCOCC3)c(=O)n2C)cc1 [Example 45]", 8.40),
    ("Cn1c(=O)n(C2CCOCC2)c2c3cc(-c4ccc(OCCCN5CCCC5)cc4)c(F)cc3ncc21 [Example 46]", 8.70),
    ("CC(C)n1c(=O)n(C)c2cnc3ccc(-c4ccc(OCCCN5CCCC5)cc4)cc3c21 [Example 2]", 9.01),
]
